Parameter: EC50. Scope: all listed entries.
target.or.test.system: Streptokinase A (Streptococcus pyogenes serotype M1, UniProt P10520)
Sequence (P10520 whole entry): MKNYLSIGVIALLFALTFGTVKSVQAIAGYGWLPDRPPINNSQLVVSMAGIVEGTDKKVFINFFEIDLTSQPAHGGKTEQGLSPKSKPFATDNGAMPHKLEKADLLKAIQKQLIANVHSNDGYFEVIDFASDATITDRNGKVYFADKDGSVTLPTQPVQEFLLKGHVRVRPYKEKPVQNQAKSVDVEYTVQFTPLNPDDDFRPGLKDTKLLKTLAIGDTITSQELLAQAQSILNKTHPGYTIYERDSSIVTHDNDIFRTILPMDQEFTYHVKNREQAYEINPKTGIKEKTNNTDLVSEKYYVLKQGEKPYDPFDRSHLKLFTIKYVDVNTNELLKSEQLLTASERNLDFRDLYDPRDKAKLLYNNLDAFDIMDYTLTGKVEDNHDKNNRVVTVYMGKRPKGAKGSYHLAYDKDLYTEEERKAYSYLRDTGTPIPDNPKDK
experimental.details: S. pyogenes streptokinase expression inhibitors, potency, dose response, plasminogen activation absorbance, OD405 (AID 1914);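 further: secreted streptokinase activity via plasminogen activation per viability signal from cell pellet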
Format: functional, Streptococcus pyogenes M1 GAS
Activity calls are given as the source filed them.

molecule	EC50
O=S(=O)(c1ccc(F)cc1)c1nc(-c2ccccc2)oc1N1CCOCC1	> 150 µM (not active)
COc1ccc(NC2=NCC(Cc3ccc(Br)cc3)S2)cc1 (stereo not given)	> 150 µM (not active)
COc1ccc(Cn2c(C3CCCCC3)nc3c(c(=O)c4ccccc4n3C)c2=O)cc1	> 150 µM (not active)
Cc1cccc(CC(Cc2nc3ccccc3[nH]2)c2nc3ccccc3[nH]2)c1 (stereo not given)	> 150 µM (not active)
CCCCCc1ccc(OCCCC[n+]2ccccc2)c(CCCCC)c1	27.1 µM (active)
Cc1ccc(N(C)S(=O)(=O)c2cccc(C(=O)Nc3nc4ccccc4[nH]3)c2)cc1	> 150 µM (not active)
COc1ccc([N+](=O)[O-])cc1NC(=S)NC(NC(=O)C(c1ccccc1)c1ccccc1)C(Cl)(Cl)Cl (stereo not given)	> 150 µM (not active)
O=C(O)c1ccccc1-c1ccccc1C(=O)Nc1ccc(-c2nc3cc(Cl)ccc3o2)cc1	> 150 µM (not active)
CC1(C)CC(c2nc(-c3ccc(Cl)cc3)cs2)CCS1 (stereo not given)	13.9 µM (active)
CCOc1ccc(NC(=O)CSc2nnc(Cc3ccccc3)c(=O)n2N)cc1	> 150 µM (not active)

---

Parameter: EC50. Scope: all listed entries.
target.or.test.system: Short transient receptor potential channel 4 (Mus musculus)
Sequence (Q9QUQ5 whole entry): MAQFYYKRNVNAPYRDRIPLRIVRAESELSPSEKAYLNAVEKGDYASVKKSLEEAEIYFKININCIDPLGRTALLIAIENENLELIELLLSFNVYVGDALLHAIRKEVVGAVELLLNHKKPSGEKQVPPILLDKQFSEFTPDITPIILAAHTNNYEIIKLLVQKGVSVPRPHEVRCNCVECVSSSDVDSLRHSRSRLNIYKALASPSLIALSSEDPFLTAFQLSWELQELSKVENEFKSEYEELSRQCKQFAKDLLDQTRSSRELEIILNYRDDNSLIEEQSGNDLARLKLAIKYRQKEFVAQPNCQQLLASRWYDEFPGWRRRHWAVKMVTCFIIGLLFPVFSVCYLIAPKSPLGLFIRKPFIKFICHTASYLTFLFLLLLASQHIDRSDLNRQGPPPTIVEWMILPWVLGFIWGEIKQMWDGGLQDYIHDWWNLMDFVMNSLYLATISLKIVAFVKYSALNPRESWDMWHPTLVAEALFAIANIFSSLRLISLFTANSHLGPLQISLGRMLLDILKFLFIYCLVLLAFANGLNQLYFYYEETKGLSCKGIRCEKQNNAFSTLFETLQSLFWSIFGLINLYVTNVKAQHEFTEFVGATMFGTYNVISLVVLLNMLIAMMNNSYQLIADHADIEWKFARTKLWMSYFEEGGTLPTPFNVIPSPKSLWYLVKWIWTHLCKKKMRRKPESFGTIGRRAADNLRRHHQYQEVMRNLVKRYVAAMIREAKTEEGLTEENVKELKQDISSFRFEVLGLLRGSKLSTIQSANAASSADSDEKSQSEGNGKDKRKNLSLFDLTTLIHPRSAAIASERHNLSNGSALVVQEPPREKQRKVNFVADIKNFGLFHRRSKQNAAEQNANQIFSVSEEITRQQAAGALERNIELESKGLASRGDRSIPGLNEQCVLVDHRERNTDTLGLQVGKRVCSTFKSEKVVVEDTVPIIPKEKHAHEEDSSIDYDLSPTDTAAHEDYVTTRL
experimental.details: mouse TRPC4 channel activators, dose response, cell-based, HEK293 TRPC4/mu-opioid, Fluo-4 calcium (AID 434937)
Type: functional
The source made the active and inactive calls.

compound	EC50
CN(C)C(CNC(=O)c1cc2ccccc2oc1=O)c1ccccc1 (stereo not drawn)	0.299 µM (active)
COC(=O)C1CCN(Cc2cn(-c3ccccc3)nc2-c2ccc3c(c2)OCO3)CC1	1.88 µM (active)
O=C(NNC(=S)NC(=O)C12CC3CC(CC(C3)C1)C2)c1ccncc1	4.22 µM (active)
CC1CC(C)CN(CCCNS(=O)(=O)c2cc(Br)cc3c2N(C(=O)C2CC2)CC3)C1 (stereo not drawn)	0.0267 µM (active)
CCCN(CCC)CCCNC(=O)C1CCN(S(=O)(=O)c2cccc3nsnc23)CC1	0.133 µM (active)
COc1ccc(N2CCN(Cc3nc4ccccc4n3C)CC2)cc1	6.68 µM (active)
Cc1cc(-c2ccccc2)cc(C)[n+]1Cc1ccccc1.[O-][Cl+3]([O-])([O-])[O-]	1.88 µM (active)
Cc1ccc(C)c(OCCCCCn2ccnc2)c1	3.35 µM (active)

---

target.or.test.system: Protein skinhead-1 (Caenorhabditis elegans, UniProt P34707)
Sequence (P34707 whole entry): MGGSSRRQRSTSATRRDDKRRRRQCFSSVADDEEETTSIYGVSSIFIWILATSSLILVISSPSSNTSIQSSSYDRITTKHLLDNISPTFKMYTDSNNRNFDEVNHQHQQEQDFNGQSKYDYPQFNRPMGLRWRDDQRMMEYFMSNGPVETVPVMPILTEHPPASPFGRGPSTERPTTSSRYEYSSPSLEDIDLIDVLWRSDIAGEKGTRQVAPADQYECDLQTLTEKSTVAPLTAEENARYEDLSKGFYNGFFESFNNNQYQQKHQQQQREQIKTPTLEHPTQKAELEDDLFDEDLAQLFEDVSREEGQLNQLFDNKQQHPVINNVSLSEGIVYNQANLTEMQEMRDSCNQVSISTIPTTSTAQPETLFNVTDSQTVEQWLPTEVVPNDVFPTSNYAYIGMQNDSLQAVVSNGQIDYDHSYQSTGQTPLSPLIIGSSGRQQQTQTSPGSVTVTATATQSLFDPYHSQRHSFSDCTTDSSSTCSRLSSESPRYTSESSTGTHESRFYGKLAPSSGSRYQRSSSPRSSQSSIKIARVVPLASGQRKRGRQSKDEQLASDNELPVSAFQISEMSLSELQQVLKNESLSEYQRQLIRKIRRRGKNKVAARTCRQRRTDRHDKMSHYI
Type: functional
Activity calls are given as the source filed them.
Classes used: yes (active), no (inactive)

molecule	category.label
Clc1ccc(C=Cc2ccccn2)cc1	yes
O=C1/C(=C/c2cccs2)CCC1C1CCCC1 (configuration not stated)	no
CC1CCCCC1N1CN=C(Nc2nc3ccccc3s2)NC1 (configuration not stated)	no
O=C(NCCC1=CCCCC1)NC1CCCCC1	no
O=C(/C=C/Nc1ccc(F)c(Cl)c1)c1ccco1	yes
O=C(Nc1ccc2[nH]c(-c3ccccc3)nc2c1)c1cccs1	no
CC1CCN(CC(=O)Nc2cccc(C(=O)Nc3cccc(C(F)(F)F)c3)c2)CC1	yes
Cc1ccc(C2CC(=O)Oc3cc(O)ccc32)cc1 (configuration not stated)	no
Cc1cnc(NC(=O)CC(C)c2ccccc2)s1 (configuration not stated)	no
COCC(=O)Nc1sc2c(c1C(=O)OC)CCCC2	no
O=C1C2C(C(=O)N1Cc1cccnc1)C1C=CC2C12CC2 (configuration not stated)	no
COC(=O)c1oc2ccc(Cl)cc2c1-n1cccc1	no

Data origin, for the record: ChEMBL document CHEMBL1201862
